- Assay target: Syk kinase (Homo sapiens)
- Construct: purchased
- Assay name: Syk kinase inhibition, Caliper LabChip off-chip mobility-shift kinase assay
- Type: biochemical
- Stated conditions: read-out: Syk Enzyme IC50
Outcome measure: IC50 (nM)
Numeric answer only, unit nM assumed.

Worked set:
> print(dat)
                                   compound  unit.abbreviation  value
1  CCN1CCN(C(=O)c2ccc(Nc3nc(-c4cncc(OC)n4)cc4cc[nH]c(=O)c34)cc2)CC1                 nM     35
2  COc1cncc(-c2cc3cc[nH]c(=O)c3c(Nc3ccc(C4CCN(C(C)CC#N)CC4)c(C)c3)n2)n1 (stereo not shown)                 nM    160
3  COc1ncc(-c2cc3cc[nH]c(=O)c3c(Nc3ccc(CCN4CCNC(=O)C4)cc3)n2)cn1                 nM    201

Exercise: // query IC50 value for entry CC[C@H](CO)Nc1nc(Nc2cnccn2)cc2ccn(CC)c(=O)c12
Solution: 302
